target: T1, TDP-219 peptide (human); assay: indirect ELISA, 8-mer peptide library
T1 construct: 8-mer of human TDP-43; same ELISA method as for the biotinylated 15-mers
T1 peptide: DVFIPKPF
VALUE TYPE: binding result

ACI-7062-412E12-Ab1 (antibody, IgG1, V domains shown, also called 412E12A2; clone 10) VH: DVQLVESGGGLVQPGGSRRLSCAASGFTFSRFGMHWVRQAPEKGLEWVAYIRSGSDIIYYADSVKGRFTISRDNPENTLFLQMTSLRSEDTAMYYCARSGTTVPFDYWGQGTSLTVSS VL: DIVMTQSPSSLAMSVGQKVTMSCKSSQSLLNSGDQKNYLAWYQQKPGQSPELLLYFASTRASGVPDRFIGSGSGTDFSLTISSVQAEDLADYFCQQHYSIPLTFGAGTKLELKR :: no binding
ACI-7062-406E3-Ab1 (antibody, IgG2a, V domains shown, also called 406E3D5; clone 5) VH: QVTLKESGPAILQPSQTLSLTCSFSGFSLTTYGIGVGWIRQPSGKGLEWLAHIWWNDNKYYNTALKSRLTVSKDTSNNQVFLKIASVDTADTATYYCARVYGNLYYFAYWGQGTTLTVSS VL: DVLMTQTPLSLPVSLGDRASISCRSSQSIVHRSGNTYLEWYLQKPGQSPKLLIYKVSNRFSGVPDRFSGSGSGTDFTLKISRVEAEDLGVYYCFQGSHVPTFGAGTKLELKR :: no binding
ACI-7062-410H3-Ab1 (antibody, IgG1, V domains shown, also called 410H3B9; clone 7) VH: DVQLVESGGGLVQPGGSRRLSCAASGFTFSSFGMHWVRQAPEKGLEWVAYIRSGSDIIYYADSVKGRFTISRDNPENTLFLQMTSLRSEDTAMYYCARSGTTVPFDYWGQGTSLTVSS VL: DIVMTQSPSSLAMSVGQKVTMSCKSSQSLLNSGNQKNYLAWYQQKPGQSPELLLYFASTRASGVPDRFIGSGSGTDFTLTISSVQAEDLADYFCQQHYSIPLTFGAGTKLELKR :: no binding

Reference source for all entries: patent US20220025023A1
